Listed below: pIC50 values for each entry.
- Tested on: PBL
- ASSAY OVERVIEW: Cytotoxicity against PHA-stimulated human PBL after 72 hrs by MTT assay
- Format: cell-based
Please keep in mind that pIC50 is minus log10 of the molar concentration; only the number is needed.

Give recorded pIC50. COc1ccc(C(=O)O[C@H]2CC(C)=C[C@H](OC(C)=O)[C@]3(C)[C@@H]2[C@](O)(C(C)C)C[C@@H]3O)cc1
4.47

Give recorded pIC50. COc1ccc(C(=O)O[C@H]2CC(C)=C[C@H](OC(C)=O)[C@@]3(C)[C@@H](OC(C)=O)C[C@@](O)(C(C)C)[C@H]23)cc1
5.03

Give recorded pIC50. C/C=C(/C)C(=O)O[C@H]1CC(C)=C[C@@H](OC(=O)/C(C)=C\C)[C@@]2(C)CC[C@@](O)(C(C)C)[C@H]12
4.86

***
Give recorded pIC50. COc1ccc(C(=O)O[C@H]2CC(C)=C[C@H](O)[C@@]3(C)[C@@H](OC(C)=O)C[C@@](O)(C(C)C)[C@H]23)cc1
4.57

----------
- ASSAY OVERVIEW: Cytotoxicity against human SEM cells after 72 hrs by MTT assay
- Assay type: functional, cell-based
Listed below: pIC50 values for each entry.
Please keep in mind that pIC50 is minus log10 of the molar concentration; only the number is needed.

Give recorded pIC50. COc1ccc(C(=O)O[C@H]2CC(C)=CC[C@@]3(C)CC[C@@](O)(C(C)C)[C@H]23)cc1
4.74

----------
- ASSAY OVERVIEW: Cytotoxicity against human RS4:11 cells after 72 hrs by MTT assay
- Assay type: functional, cell-based
- TEST PARAMETERS: RS4-11, 72 h
Listed below: IC50 values for each entry.
Express it in µM; write the number only.

Check out these entries, answers already filled in.
Give recorded IC50. COc1ccc(C(=O)O[C@H]2CC(C)=C[C@H](OC(C)=O)[C@@]3(C)[C@@H](OC(C)=O)C[C@@](O)(C(C)C)[C@H]23)cc1
2.8

Give recorded IC50. COc1ccc(C(=O)O[C@H]2C=C(C)C(=O)C[C@@]3(C)CC[C@@](O)(C(C)C)[C@H]23)cc1
28.6

Give recorded IC50. C/C=C(/C)C(=O)O[C@H]1CC(C)=C[C@@H](OC(=O)/C(C)=C\C)[C@@]2(C)CC[C@@](O)(C(C)C)[C@H]12
1.7

Give recorded IC50. COc1ccc(C(=O)O[C@H]2CC(C)=CC[C@@]3(C)CC[C@@](O)(C(C)C)[C@H]23)cc1
17.6

Give recorded IC50. CC1=CC[C@]2(C)[C@@H]([C@@H](OC(=O)c3ccc(O)cc3)C1)[C@](O)(C(C)C)C[C@@H]2O
33.4

***
Give recorded IC50. COc1ccc(C(=O)OCC2=CC[C@@]3(C)CCC(C(C)C)=C3CC2)cc1
44.1

Give recorded IC50. C=C1C[C@H](OC(=O)c2ccc(O)cc2)[C@@H]2[C@](C)(CC[C@@]2(O)C(C)C)C[C@@H]1O
29

Give recorded IC50. CC1=C[C@H](OC(=O)c2ccc(O)cc2)[C@@H]2[C@](C)(CC[C@@]2(O)C(C)C)CC1=O
28.2

Give recorded IC50. COc1ccc(C(=O)O[C@H]2CC(C)=C[C@H](OC(C)=O)[C@]3(C)[C@@H]2[C@](O)(C(C)C)C[C@@H]3O)cc1
26.8
